# tgt: DLK (Homo sapiens)
# Sequence (Q12852 1-859): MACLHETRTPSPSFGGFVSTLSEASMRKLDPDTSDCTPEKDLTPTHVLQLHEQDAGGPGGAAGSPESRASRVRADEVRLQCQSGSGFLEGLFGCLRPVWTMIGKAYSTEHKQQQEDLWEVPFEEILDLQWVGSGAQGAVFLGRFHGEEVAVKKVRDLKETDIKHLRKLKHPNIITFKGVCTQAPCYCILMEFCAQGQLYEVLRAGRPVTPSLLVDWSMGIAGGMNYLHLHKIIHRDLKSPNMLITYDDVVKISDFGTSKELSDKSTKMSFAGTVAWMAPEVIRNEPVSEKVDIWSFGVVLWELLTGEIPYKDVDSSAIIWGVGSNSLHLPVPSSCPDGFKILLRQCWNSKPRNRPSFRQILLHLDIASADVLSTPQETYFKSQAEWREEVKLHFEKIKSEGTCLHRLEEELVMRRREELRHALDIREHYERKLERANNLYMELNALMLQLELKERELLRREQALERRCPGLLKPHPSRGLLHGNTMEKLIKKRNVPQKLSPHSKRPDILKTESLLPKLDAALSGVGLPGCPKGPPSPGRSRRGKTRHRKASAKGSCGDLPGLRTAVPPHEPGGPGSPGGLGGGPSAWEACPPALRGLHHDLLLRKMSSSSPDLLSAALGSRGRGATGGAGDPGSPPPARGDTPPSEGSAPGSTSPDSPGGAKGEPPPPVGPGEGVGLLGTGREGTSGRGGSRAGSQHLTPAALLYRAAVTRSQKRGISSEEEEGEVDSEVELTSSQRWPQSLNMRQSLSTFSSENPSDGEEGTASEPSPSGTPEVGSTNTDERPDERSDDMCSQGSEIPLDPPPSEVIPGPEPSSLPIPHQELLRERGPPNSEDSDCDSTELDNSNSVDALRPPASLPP
# protocol.description: KINOMEscan competition binding
# assay.conditions: read-out: %Inh DLK

| compound | inhibition at 1 µM [%] |
| --- | --- |
| Cn1cc(-c2cnc(N)c3c(-c4ccc5c(c4)CCN5C(=O)Cc4ccccc4)csc23)cn1 [UNC10225012A] | 0 |
| CS(=O)(=O)Cc1ccc(Nc2nccc(-c3c(-c4cccc(NC(=O)C5CCCCC5)c4)nn4ncccc34)n2)cc1 [UNC10225159A] | 41 |
| COc1cccc(OC)c1C(=O)Nc1cccc(-c2nn3ccccc3c2-c2ccnc(Nc3cccc(F)c3)n2)c1 [UNC10225310A] | 0 |
| O=c1cc(N2CCOCC2)nc2n(Cc3cccc(Cl)c3Cl)c(C3CC3)nn12 [UNC10225469A] | 0 |
| Cc1ccc(NC(=O)Nc2cccc(C(F)(F)F)c2)cc1 [UNC10225187A] | 0 |

====

# tgt: ABL1-phosphorylated (Homo sapiens, UniProt P00519)
# Sequence (P00519 whole entry): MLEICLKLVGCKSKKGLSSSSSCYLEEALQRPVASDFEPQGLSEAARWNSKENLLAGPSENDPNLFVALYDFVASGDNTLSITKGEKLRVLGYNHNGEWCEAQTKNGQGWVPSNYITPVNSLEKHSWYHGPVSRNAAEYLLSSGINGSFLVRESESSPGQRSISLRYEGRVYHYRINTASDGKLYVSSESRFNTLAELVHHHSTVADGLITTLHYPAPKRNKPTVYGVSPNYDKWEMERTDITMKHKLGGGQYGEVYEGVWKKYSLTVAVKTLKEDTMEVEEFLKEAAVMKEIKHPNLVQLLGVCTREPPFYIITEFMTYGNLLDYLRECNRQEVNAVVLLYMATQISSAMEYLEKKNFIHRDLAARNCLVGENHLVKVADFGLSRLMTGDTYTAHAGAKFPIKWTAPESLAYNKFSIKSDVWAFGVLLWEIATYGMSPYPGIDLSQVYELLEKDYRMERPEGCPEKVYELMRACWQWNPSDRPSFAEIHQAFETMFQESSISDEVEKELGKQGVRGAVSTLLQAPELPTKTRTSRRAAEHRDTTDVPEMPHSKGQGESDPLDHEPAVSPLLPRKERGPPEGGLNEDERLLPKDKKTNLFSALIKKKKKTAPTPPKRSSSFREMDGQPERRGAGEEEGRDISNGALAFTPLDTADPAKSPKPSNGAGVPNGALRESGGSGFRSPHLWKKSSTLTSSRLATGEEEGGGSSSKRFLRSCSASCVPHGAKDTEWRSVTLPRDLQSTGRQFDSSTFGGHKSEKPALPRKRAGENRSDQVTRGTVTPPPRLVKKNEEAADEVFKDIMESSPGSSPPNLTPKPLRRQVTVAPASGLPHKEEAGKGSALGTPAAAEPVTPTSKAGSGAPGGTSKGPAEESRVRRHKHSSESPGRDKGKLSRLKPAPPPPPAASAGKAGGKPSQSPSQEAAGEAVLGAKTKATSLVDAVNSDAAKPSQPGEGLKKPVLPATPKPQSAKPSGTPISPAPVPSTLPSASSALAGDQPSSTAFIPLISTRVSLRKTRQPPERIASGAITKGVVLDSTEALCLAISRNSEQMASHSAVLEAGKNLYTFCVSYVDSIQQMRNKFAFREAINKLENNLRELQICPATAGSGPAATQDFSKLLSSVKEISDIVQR
# protocol.description: KINOMEscan competition binding
# assay.conditions: read-out: %Inh ABL1-phosphorylated
Classify as follows. Reported inhibition at 1 µM greater than or equal to 20%: True. Reported inhibition at 1 µM below: False.

| molecule | label.class |
| --- | --- |
| Cn1cc(-c2cnc(N)c3c(-c4ccc5c(c4)CCN5C(=O)Cc4ccccc4)csc23)cn1 [UNC10225012A] | True |
| COc1cccc(OC)c1C(=O)Nc1cccc(-c2nn3ccccc3c2-c2ccnc(Nc3cccc(F)c3)n2)c1 [UNC10225310A] | False |
| CS(=O)(=O)Cc1ccc(Nc2nccc(-c3c(-c4cccc(NC(=O)C5CCCCC5)c4)nn4ncccc34)n2)cc1 [UNC10225159A] | False |
| Cc1ccc(NC(=O)Nc2cccc(C(F)(F)F)c2)cc1 [UNC10225187A] | True |
